# credit: ChEMBL document CHEMBL5329199

- assayProtocol: Cytotoxicity against HUVEC cells incubated for 24 hrs by MTT assay
- Format: toxicity, cell-based
- testParameters: human
reportedMetric: IC50 at 24 h (µM)
Numbers only, in µM.

May I ask what IC50 at 24 h has been recorded for C=CC(=O)N1CCC[C@@H](n2nc(-c3ccc(NC(=O)c4ccc(N(C)C)cc4)c4c3OCO4)c3c(N)ncnc32)C1 ?
40.6

* * *

- targetOrSystem: Tyrosine-protein kinase JAK3 (Homo sapiens)
- Sequence (P52333 whole entry): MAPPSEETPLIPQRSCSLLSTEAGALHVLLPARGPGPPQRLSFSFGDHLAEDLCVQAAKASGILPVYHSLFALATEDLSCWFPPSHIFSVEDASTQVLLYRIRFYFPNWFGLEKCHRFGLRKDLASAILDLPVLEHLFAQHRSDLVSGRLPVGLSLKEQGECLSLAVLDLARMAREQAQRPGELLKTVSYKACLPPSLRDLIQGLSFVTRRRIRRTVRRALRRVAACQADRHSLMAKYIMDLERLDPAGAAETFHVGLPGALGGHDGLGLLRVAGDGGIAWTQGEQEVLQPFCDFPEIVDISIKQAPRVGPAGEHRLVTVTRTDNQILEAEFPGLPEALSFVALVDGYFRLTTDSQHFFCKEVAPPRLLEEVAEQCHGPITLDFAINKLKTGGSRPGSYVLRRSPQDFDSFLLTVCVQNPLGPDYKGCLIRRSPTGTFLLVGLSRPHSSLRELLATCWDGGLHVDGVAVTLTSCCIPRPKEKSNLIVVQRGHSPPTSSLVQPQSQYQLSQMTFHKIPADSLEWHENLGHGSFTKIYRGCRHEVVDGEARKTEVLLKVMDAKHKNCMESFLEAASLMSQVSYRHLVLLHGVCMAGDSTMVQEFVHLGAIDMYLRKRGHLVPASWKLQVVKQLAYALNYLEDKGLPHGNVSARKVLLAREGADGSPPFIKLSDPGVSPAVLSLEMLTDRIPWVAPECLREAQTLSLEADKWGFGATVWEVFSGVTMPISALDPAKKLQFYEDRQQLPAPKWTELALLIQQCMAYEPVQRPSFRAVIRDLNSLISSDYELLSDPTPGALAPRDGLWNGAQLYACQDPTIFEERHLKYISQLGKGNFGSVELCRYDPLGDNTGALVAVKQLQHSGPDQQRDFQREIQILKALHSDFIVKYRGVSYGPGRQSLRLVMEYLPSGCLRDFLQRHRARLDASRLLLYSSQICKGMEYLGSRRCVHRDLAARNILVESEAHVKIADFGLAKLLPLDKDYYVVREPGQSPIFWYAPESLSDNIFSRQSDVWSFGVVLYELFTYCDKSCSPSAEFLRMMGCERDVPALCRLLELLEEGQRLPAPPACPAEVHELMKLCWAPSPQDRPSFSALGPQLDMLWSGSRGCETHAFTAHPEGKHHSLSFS
Would you mind telling me the reported IC50 of each entry?
One number for each entry, in nM.

Some molecules with known IC50 results, for comparison:
C=CC(=O)N1CCC[C@@H](n2nc(-c3ccc(NC(=O)c4ccc[nH]4)c4c3OCO4)c3c(N)ncnc32)C1	100
C=CC(=O)N1CCC[C@@H](n2nc(-c3ccc(NC(=O)c4cccc(Cl)c4)c4c3OCO4)c3c(N)ncnc32)C1	44
C=CC(=O)N1CCC[C@@H](n2nc(-c3ccc(NC(=O)c4ccc(N(CC)CC)cc4)c4c3OCO4)c3c(N)ncnc32)C1	27
C=CC(=O)N1CCC[C@@H]1Cn1nc(-c2ccc(NC(=O)c3ccc(N(C)C)cc3)c3c2OCO3)c2c(N)ncnc21	645
C=CC(=O)N1CCC[C@@H](n2nc(-c3ccc(NC(=O)c4ccc(OC)cc4)c4c3OCO4)c3c(N)ncnc32)C1	44
C=CC(=O)N1CCC[C@@H](n2nc(-c3ccc(NC(=O)c4ccccc4)c4c3OCO4)c3c(N)ncnc32)C1	73
C=CC(=O)N1CCC[C@@H](n2nc(-c3ccc(NC(=O)c4ccc(N(C)C)cc4)c4c3OCO4)c3c(N)ncnc32)C1	14
C=CC(=O)N1CCC[C@@H](n2nc(-c3ccc(NC(=O)c4ccccc4Cl)c4c3OCO4)c3c(N)ncnc32)C1	106

# per-item lookup of IC50; items listed below
1. C=CC(=O)N1CCC[C@@H](n2nc(-c3ccc(NC(=O)c4ccccc4N(C)C)c4c3OCO4)c3c(N)ncnc32)C1
2. C=CC(=O)N1CCC[C@@H](n2nc(-c3ccc(NC(=O)C45CC6CC(CC(C6)C4)C5)c4c3OCO4)c3c(N)ncnc32)C1

122
500

May I ask what IC50 has been recorded for C=CC(=O)N1CCC[C@@H](n2nc(-c3ccc(NC(=O)c4cccc(N(C)C)c4)c4c3OCO4)c3c(N)ncnc32)C1 ?
97
